Test method notes: DSSTox (CPDBAS) Carcinogenic Potency Database Summary SingleCellCall Results
Condition set: animal chronic carcinogenicity bioassays, CPDB summary call
Activity calls are given as the source filed them.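 The calls were made as follows: active = a tumor-causing dose value with its tumor site reported for any sex and species group of a rodent or other animal cancer study; inconclusive = only studies judged inadequate by the national testing program; inactive = tested in at least one study, none positive.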
Reply using exactly one outcome from label 1 for active, label 0 for inactive

Before answering, review these 4 worked examples.
• CN(CC(O)CO)N=O (stereo not drawn) = label 1
• CN(CCCO)N=O = label 1
• CCCCCC(/C=C/C=C\CCCCCCCC(=O)OC)OO (stereo not drawn) = label 0
• N#CSCc1ccccc1 = label 0

Task: Give the logged outcome of this assay for the following compound: O=NN1CC(=O)NC1=O
Output: label 1

Task: So what was the verdict on Oc1c(Cl)cc(Cl)c(Cl)c1Cc1c(O)c(Cl)cc(Cl)c1Cl in this test?
Output: label 0

Task: Name the outcome recorded for CCOC1=C(O)C(=O)O[C@@H]1[C@@H](O)CO in the assay.
Output: label 0

Task: What call does the record list for CCC(C)[N+](=O)[O-] (stereo not drawn) ?
Output: label 1

Task: GET /call?item= NC(=O)N/N=C/c1ccco1 returns the recorded outcome of this test.
Output: label 0

Task: Please state the recorded outcome for this compound: ClC(Br)Br
Output: label 1

Task: Per the records of this test, what outcome belongs to O=C1c2ccccc2-c2ccc3c4c(ccc1c24)-c1ccccc1C3=O ?
Output: label 1

Task: Short answer needed: outcome of this test for FC(F)(Cl)Cl ?
Output: label 0

----------
Test method notes: DSSTox (CPDBAS) Carcinogenic Potency Database Summary SingleCellCall Results
Condition set: animal chronic carcinogenicity bioassays, CPDB summary call
Calls of active or inactive are those of the source.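 The calls were made as follows: active = a tumor-causing dose value with its tumor site reported for any sex and species group of a rodent or other animal cancer study; inconclusive = only studies judged inadequate by the national testing program; inactive = tested in at least one study, none positive.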
Property measured: outcome

Here's what some known entries look like.
- C=C(F)F: inactive
- C=C1C[C@]23C[C@@]1(O)CC[C@H]2[C@@]12C=C[C@H](O)[C@@](C)(C(=O)O1)[C@H]2[C@@H]3C(=O)O: inactive
- NNC(N)=S: inactive
- CC(C)(Oc1ccc(C2CC2(Cl)Cl)cc1)C(=O)O (configuration not stated): active
- CCCCCCCCCCCCCCCC(=O)CC(=O)CCCCCCCCCCCCCCC: active

# ---- query compound ----
Task: // outcome lookup, key: CCNNC(=O)[C@@H]1[C@H](c2cc(OC)c(OC)c(OC)c2)c2cc3c(cc2[C@H](O)[C@H]1CO)OCO3
Output: inactive

----------
Test method notes: DSSTox (CPDBAS) Carcinogenic Potency Database Summary SingleCellCall Results
Condition set: animal chronic carcinogenicity bioassays, CPDB summary call
Active and inactive are the calls of the source.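 The calls were made as follows: active = a tumor-causing dose value with its tumor site reported for any sex and species group of a rodent or other animal cancer study; inconclusive = only studies judged inadequate by the national testing program; inactive = tested in at least one study, none positive.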
Outcome field: choose from true (1) = active, false (0) = inactive

Consider the worked cases shown below.
- CC1CCC(C(C)C)C(O)C1 (configuration not stated): false (0)
- O=S(=O)(O)c1cc(S(=O)(=O)O)c2c(N=Nc3ccc(S(=O)(=O)O)c4ccccc34)c(O)ccc2c1: true (1)
- Cc1ccc(-c2cc(C(F)(F)F)nn2-c2ccc(S(N)(=O)=O)cc2)cc1: false (0)

Task: Call for entry CCC(CC)C(=O)NC(N)=O :
Output: false (0)

Task: // param item: CCN(CC)c1cc2oc3cc(=[N+](CC)CC)c(C)cc-3c(-c3ccc(S(=O)(=O)O)cc3S(=O)(=O)[O-])c2cc1C ; yields the recorded call
Output: false (0)

Task: Give the logged outcome of this assay for the following compound: Nc1ncn([C@@H]2O[C@H](CO)[C@@H](O)[C@H]2O)c(=O)n1
Output: true (1)

Task: Hey, what did the test say about C=Cc1ccccc1 ?
Output: true (1)

Task: Test call, this compound: O=CNNc1nc(-c2ccco2)cs1
Output: false (0)

Task: // return assay outcome for CS(=O)(=O)OCCCCOS(C)(=O)=O
Output: false (0)

Task: Give the logged outcome of this assay for the following compound: CCN(CC)C(=S)[S-].CCN(CC)C(=S)[S-].[Zn+2]
Output: false (0)

Task: Could you kindly confirm the outcome this assay logged for CC1=NN(c2ccccc2)C(=O)C1 ?
Output: false (0)

Task: Short answer needed: outcome of this test for COP(=S)(OC)Oc1ccc([N+](=O)[O-])cc1 ?
Output: false (0)

----------
Test method notes: DSSTox (CPDBAS) Carcinogenic Potency Database Summary SingleCellCall Results
Condition set: animal chronic carcinogenicity bioassays, CPDB summary call
Active and inactive are the calls of the source.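 The calls were made as follows: active = a tumor-causing dose value with its tumor site reported for any sex and species group of a rodent or other animal cancer study; inconclusive = only studies judged inadequate by the national testing program; inactive = tested in at least one study, none positive.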
Pick one and only one: active, inactive

Known results for molecules:
- O=NN1CCN(N=O)CC1: active
- CCN(N)C=O: active

Task: How did this test come out for CN(C)CCO ?
Output: inactive

Task: // return assay outcome for C=CC1=C(C)C2=CC3=NC(=C(CC(=O)[O-])C4=NC(=C(C)C4=C([O-])[O-])C=c4[n-]c(c(C)c4CC)=CC1=N2)[C@@H](CCC(=O)[O-])[C@@H]3C.[Cu+2].[Na+].[Na+].[Na+]
Output: inactive

Task: Which result was noted for this molecule in the test: CCCCCN(CCCCC)N=O
Output: active

Task: Hi, sorry to bother you, what did the test record for NC(=S)C(N)=S ?
Output: inactive

Task: Would you mind telling me which call this test gave CN(C)CCN(Cc1cccs1)c1ccccn1 ?
Output: active

Task: Hey, what did the test say about CC1=CC(C)(C)N(N=O)c2ccccc21 ?
Output: active

----------
Test method notes: DSSTox (CPDBAS) Carcinogenic Potency Database Summary SingleCellCall Results
Condition set: animal chronic carcinogenicity bioassays, CPDB summary call
Active and inactive are the calls of the source.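 How the source made its calls: active means a tumor-causing dose value with its tumor site reported for any sex and species group of a rodent or other animal cancer study; inconclusive means only studies judged inadequate by the national testing program; inactive means tested in at least one study, none positive.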
Would you mind answering with one of these outcomes? active, inactive

Please review the entries below; each comes with its answer.
- O=[N+]([O-])c1cc([As](=O)(O)O)ccc1O: inactive
- c1ccc2occc2c1: active
- CN=C(N)N: inactive
- CN(N=O)c1ccccn1: active
- O.O.O.O.O=C([O-])CC(O)(CC(=O)[O-])C(=O)[O-].[Fe+3]: inactive
- CC(=O)Nc1ccc(CC(=O)O)cc1: inactive
- CS(=O)(=O)OCCCNCCCOS(C)(=O)=O: inactive
- CCN(CC)C(=S)S: inactive
- O=C1C=CC(=O)C=C1: active
- CCc1ccc(C(c2ccc(CC)cc2)C(Cl)Cl)cc1: inactive

Task: Hi, do you know how CCN(N=O)C(=O)NCCO came out in this test?
Output: active

Task: Lab log entry: O=NN1CCCN(N=O)CC1 — outcome as called in the assay?
Output: active

Task: Called result for Cc1cc(N)ccc1N
Output: inactive

Task: Assay result, entry O=C1N(CCO)CCN1/N=C/c1ccc([N+](=O)[O-])o1 — outcome?
Output: active

Task: How did this test come out for O=NN(CCO)CC(O)CO (stereo not given) ?
Output: active

----------
Test method notes: DSSTox (CPDBAS) Carcinogenic Potency Database Summary SingleCellCall Results
Condition set: animal chronic carcinogenicity bioassays, CPDB summary call
Active and inactive are the calls of the source.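 How the source made its calls: active means a tumor-causing dose value with its tumor site reported for any sex and species group of a rodent or other animal cancer study; inconclusive means only studies judged inadequate by the national testing program; inactive means tested in at least one study, none positive.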
Field 'call' accepts t (active), f (inactive)

Task: For NC(N)=NC(N)=NCCc1ccccc1 , what call appears in the results of this test?
Output: f

Task: Assay outcome for NC1CCCCC1 : what was it?
Output: f

Task: Tell me the recorded outcome of this test for Nc1ncn[nH]1 .
Output: t

Task: So what was the verdict on Cc1cccc(N=Nc2ccc(N(C)C)cc2)c1 in this test?
Output: t

Task: So what was the verdict on S=C(S)NCCNC(=S)S in this test?
Output: f

Task: Per the records of this test, what outcome belongs to CN(N=O)C(=O)c1ccccc1C(=O)N(C)N=O ?
Output: f

Task: Any idea what this test logged for C=CCOC(=O)c1ccccc1C(=O)OCC=C ?
Output: f

Task: Any idea what this test logged for NC(=O)c1ccccc1C(N)=O ?
Output: f

Task: Hi, do you know how Cc1ccc(S(=O)(=O)NC(=O)NN2CCCCCC2)cc1 came out in this test?
Output: f

----------
Test method notes: DSSTox (CPDBAS) Carcinogenic Potency Database Summary SingleCellCall Results
Condition set: animal chronic carcinogenicity bioassays, CPDB summary call
Calls of active or inactive are those of the source.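 How the source made its calls: active means a tumor-causing dose value with its tumor site reported for any sex and species group of a rodent or other animal cancer study; inconclusive means only studies judged inadequate by the national testing program; inactive means tested in at least one study, none positive.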
Use one of these outcomes when replying: active, inactive

* O=C(O)C1[O][Sb]2[O]C(=O)C([O]2)C(C(=O)O)[O][Sb]2[O]C(=O)C1[O]2 (centres undefined) | inactive
* COc1ccc2nc(S(=O)Cc3ncc(C)c(OC)c3C)[nH]c2c1 (centres undefined) | active
* O=[N+]([O-])c1ccc(Nc2ccc(Nc3ccccc3)c(S(=O)(=O)O)c2)c([N+](=O)[O-])c1 | active

Please find the next compound below.
Task: Record request — test call for CC(C)CON=O
Output: active

----------
Test method notes: DSSTox (CPDBAS) Carcinogenic Potency Database Summary SingleCellCall Results
Condition set: animal chronic carcinogenicity bioassays, CPDB summary call
Source text: The Carcinogenic Potency Database (CPDB) is a unique and widely used international resource of the results of over 6500 chronic, long-term animal cancer tests on over 1500 chemical substances. The CPDB provides easy access to the bioassay literature, with qualitative and quantitative analyses of both positive and negative experiments that have been published over the past 50 years in the general literature and by the National Cancer Institute/National Toxicology Program. […]
Activity calls are given as the source filed them.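 The calls were made as follows: active = a tumor-causing dose value with its tumor site reported for any sex and species group of a rodent or other animal cancer study; inconclusive = only studies judged inadequate by the national testing program; inactive = tested in at least one study, none positive.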 Numbered stars: 1 amine (or outer) side, 2 acyl side, 3 side chain; on linkers, the order of the positions; unused ones are H or OH. Bridge positions count the residues as written; N and C are the ends. Square brackets hold non-standard residues; d marks the D form. Peptide text beside a SMILES is read from it. I, II: the chains in the order shown. Actinocin(9to1) = Cc1c2oc3c(C)ccc(C(=O)[*:1])c3nc-2c(C(=O)[*:2])c(N)c1=O; NMeV = CN[C@H](C(=O)O)C(C)C; Sar = CNCC(=O)O
// classify into t = active, f = inactive

- Cc1c2oc3c(C)ccc(C(=O)N[C@@H]4C(=O)N[C@H](C(C)C)C(=O)N5CCC[C@H]5C(=O)N(C)CC(=O)N(C)[C@@H](C(C)C)C(=O)O[C@@H]4C)c3nc-2c(C(=O)N[C@@H]2C(=O)N[C@H](C(C)C)C(=O)N3CCC[C@H]3C(=O)N(C)CC(=O)N(C)[C@@H](C(C)C)C(=O)O[C@@H]2C)c(N)c1=O (I: T[dV]P[Sar][NMeV] / II: T[dV]P[Sar][NMeV]; ester I:1-I:C, II:1-II:C; linker I:N-II:N via Actinocin(9to1)): t
- ClCCl: t
- C/C=C(\C)C(=O)O[C@@H]1CCN2CC=C(COC(=O)C(O)(C(C)C)C(C)O)[C@H]12 (stereo partly drawn): t
- CCN(C#N)N=O: t
- Clc1ccc(C(c2ccc(Cl)cc2)C(Cl)(Cl)Cl)cc1: t

Task: What did the test return for C[C@@H]1CCCCN1N=O ?
Output: t

Task: Please state the recorded outcome for this compound: OB(O)O
Output: f

Task: Hi team, can someone confirm the assay call for O=S(=O)(c1ccc(Cl)cc1)c1ccc(Cl)cc1 ?
Output: f
